Molecular target: human 3β-HSD1
Sequence (P14060 2-373 limits assumed): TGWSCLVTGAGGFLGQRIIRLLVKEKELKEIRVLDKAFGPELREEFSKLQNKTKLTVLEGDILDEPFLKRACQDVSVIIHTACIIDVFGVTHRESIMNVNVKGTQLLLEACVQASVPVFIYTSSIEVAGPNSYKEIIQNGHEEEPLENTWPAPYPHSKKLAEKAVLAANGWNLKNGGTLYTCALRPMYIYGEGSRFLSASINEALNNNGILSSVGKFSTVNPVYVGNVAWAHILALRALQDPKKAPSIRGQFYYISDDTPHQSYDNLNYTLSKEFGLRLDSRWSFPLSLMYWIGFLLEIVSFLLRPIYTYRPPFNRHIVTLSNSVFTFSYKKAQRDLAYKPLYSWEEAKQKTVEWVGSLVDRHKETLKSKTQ
Assay: 3β-HSD1 inhibition, colorimetric NADH detection assay
Assay type: biochemical
Settings: purified recombinant human 3β-HSD1, 50 μM DHEA, 2 mM NAD+, 1 hour, room temperature, duplicate 10-point CRC; read-out: IC50 (nM), in vitro NADH inhibition
# strict inequality: IC50 < 300 nM yields t, everything else yields f

Previously resolved entries follow.
# compound, label
records = [
    ("CCC1(O)CCCc2nc(-c3cc(F)c(O)c(F)c3)ccc21 (centres unmarked)", "f"),
    ("CCOC1(c2ccccc2)CCCc2nc(-c3cc(F)c(O)c(F)c3)ccc21 (centres unmarked)", "t"),
    ("O=C1c2ccc(-c3cc(F)c(O)c(F)c3)nc2CCC1Cc1ccccn1 (centres unmarked)", "t"),
    ("CC1(C)CCc2nc(-c3ccc(O)c(F)c3F)ccc2C1=O", "t"),
]

Now for a further compound.
Data request: Is the reported IC50 for CC1(O)CCCc2nc(-c3cc(F)c(O)c(F)c3)ccc21 (centres unmarked) strictly below 300 nM?
Data returned: f

* * *

Readings of GI50 for the listed compounds
System: C4-2 prostate cancer cells
Assay: Cellular viability of C4-2 cells (CellTiter-Glo)
Assay type: cell-based, human
Details: Homo sapiens, 144 h, 6 days, 1% FBS + DHEA, read-out: GI50 (μM), growth inhibition

# compound, GI50
rows = [
    ("CC1(C)CCc2nc(-c3cc(F)c(O)c(F)c3)ccc2C1O (centres unmarked)", "61 µM"),
    ("CCC1CCc2nc(-c3cc(F)c(O)c(F)c3)ccc2C1=O (centres unmarked)", "16 µM"),
    ("O=C1c2ccc(-c3cc(F)c(O)c(F)c3)nc2CCC1Cc1ccccc1 (centres unmarked)", "6 µM"),
    ("O=C1CCCc2nc(-c3cc(F)c(O)c(F)c3)ccc21", "53 µM"),
    ("CC1CCc2nc(-c3cc(F)c(O)c(F)c3)ccc2C1=O (centres unmarked)", "37 µM"),
    ("CC1(C)CCc2nc(-c3cc(F)c(O)c(F)c3)ccc2C1(C)O (centres unmarked)", "20 µM"),
    ("O=C1CCCc2nc(-c3ccc(O)c(F)c3)ccc21", "59 µM"),
    ("CC1(C)CCc2nc(-c3cc(F)c(O)c(F)c3)ccc2C1(O)C1CC1 (centres unmarked)", "30 µM"),
    ("O=C1c2ccc(-c3cc(F)c(O)c(F)c3)nc2CCC1c1ccccc1 (centres unmarked)", "10 µM"),
    ("CC1(C)CCc2nc(-c3cc(F)c(O)c(F)c3)ccc2C1=O", "26 µM"),
]

GI50 for O=C1c2ccc(-c3cc(F)c(O)c(F)c3)nc2CCC12CC2 is 10 µM

* * *

Consider the following molecules and their measured log10 IC50 readings.
Target: human 3β-HSD1
Test: 3β-HSD1 inhibition, colorimetric NADH detection assay
Type: biochemical
Conditions: purified recombinant human 3β-HSD1, 50 μM DHEA, 2 mM NAD+, 1 hour, room temperature, duplicate 10-point CRC; read-out: IC50 (nM), in vitro NADH inhibition
Recall that a logarithmic scale is used here: each number is log10 of IC50 in nM.

# molecule, system, test_result
records = [
    ("CC1(C2(O)COC2)CCc2nc(-c3cc(F)c(O)c(F)c3)ccc2C1=O (centres unmarked)", "human 3β-HSD1", 3.15),
]

Now consider the entry below.
Item NC1CCCc2nc(-c3cc(F)c(O)c(F)c3)ccc21 (centres unmarked) ; assay system human 3β-HSD1; log10 IC50 reported as 3.54

* * *

Biological target: human 3β-HSD1
Assay: 3β-HSD1 inhibition, colorimetric NADH detection assay
Type: biochemical
Details: purified recombinant human 3β-HSD1, 50 μM DHEA, 2 mM NAD+, 1 hour, room temperature, duplicate 10-point CRC; read-out: IC50 (nM), in vitro NADH inhibition
Excerpt: Enzymatic turnover was quantified through NADH generation by purified, recombinant human 3β-HSD1 (expressed in Sf9 insect cells) in the presence of steroidal substrate trans-Dehydroandrosterone (DHEA) that was placed slightly above the experimentally determined Km and saturating amounts of co-factor Nicotinamide adenine dinucleotide (NAD^+). […] Final absorbance values (λ=460 nm) are spectroscopically determined on BioTek® Cytation5 or Synergy4 plate readers. […]
// map IC50 to label using low: < 200 nM; moderate: ≥ 200 nM and < 700 nM; high: ≥ 700 nM

Past entries and their recorded results:
# compound, label
rows = [
    ("O=C1CCCc2nc(-c3ccc(O)c(F)c3)ccc21 [Compound 2]", "low"),
    ("N#Cc1cc(-c2ccc3c(n2)CCCC3=O)ccc1O [Compound 3]", "moderate"),
    ("O=C(O)CC1CCc2nc(-c3cc(F)c(O)c(F)c3)ccc2C1=O (stereo not shown) [Compound 37]", "high"),
    ("O=C1c2ccc(-c3cc(F)c(O)c(F)c3)nc2CCC1F (stereo not shown) [Compound 51]", "low"),
    ("CC1(C)CCc2nc(-c3ccc(O)c(F)c3)ccc2C1(C)O (stereo not shown) [Compound 18]", "moderate"),
]

For the next question, use this compound.
Data request: Any idea which band CC1(C)CCc2nc(-c3cc(F)c(O)c(F)c3)ccc2C1(O)C1CC1 (stereo not shown) [Compound 20] is in?
Data returned: moderate

* * *

Target: human 3β-HSD1
Assay: 3β-HSD1 inhibition, colorimetric NADH detection assay
Assay type: biochemical
Conditions: purified recombinant human 3β-HSD1, 50 μM DHEA, 2 mM NAD+, 1 hour, room temperature, duplicate 10-point CRC; read-out: IC50 (nM), in vitro NADH inhibition
value_type: IC50 (nM)
Give a bare numeral; the unit nM is implied.

# compound, value_type, unit_info, test_result
rows = [
    ("CC1(C)CCc2nc(-c3cc(F)c(O)c(Cl)c3)ccc2C1=O", "IC50", "nM", 107),
    ("CC1(C)CCc2nc(-c3cc(F)c(O)cc3F)ccc2C1=O", "IC50", "nM", 84),
    ("CCOC1CCCc2nc(-c3cc(F)c(O)c(F)c3)ccc21 (centres unmarked)", "IC50", "nM", 389),
]

Data point: O=C1c2ccc(-c3cc(F)c(O)c(F)c3)nc2CCC12COCOC2 ; IC50 = 541

* * *

Biological target: human 3β-HSD1
Test: 3β-HSD1 inhibition, colorimetric NADH detection assay
Type: biochemical
Conditions: purified recombinant human 3β-HSD1, 50 μM DHEA, 2 mM NAD+, 1 hour, room temperature, duplicate 10-point CRC; read-out: IC50 (nM), in vitro NADH inhibition
value_type: IC50 (nM)
Numbers only; they are read as nM.

Field: example entries. Status: answers known.
# compound, IC50 [nM]
rows = [
    ("CC(C)c1cc(-c2cc(F)c(O)c(F)c2)nc2c1C(=O)CCC2", 8610),
    ("COC1(c2ccccn2)CCCc2nc(-c3cc(F)c(O)c(F)c3)ccc21 (stereo not shown)", 131),
    ("COCC1(C)CCc2nc(-c3cc(F)c(O)c(F)c3)ccc2C1=O (stereo not shown)", 338),
]

Okay, now this compound:
IC50 measured on O=C1CCCc2nc(-c3cc(F)c(O)cc3F)ccc21 = 83

* * *

Molecular target: human 3β-HSD1
Assay: 3β-HSD1 inhibition, colorimetric NADH detection assay
Assay type: biochemical
Conditions: purified recombinant human 3β-HSD1, 50 μM DHEA, 2 mM NAD+, 1 hour, room temperature, duplicate 10-point CRC; read-out: IC50 (nM), in vitro NADH inhibition
Response field label takes rule met when IC50 is strictly below 200 nM and rule not met in all other cases.

Data request: Please indicate whether the reported IC50 of O=C1c2ccc(-c3cc(F)c(O)c(F)c3)nc2CCC12CC2 is strictly below 200 nM.
Data returned: rule met

Data request: For Cc1cc(-c2cc(F)c(O)c(F)c2)nc2c1C(=O)CCC2 , is the recorded IC50 below the cut-off of 200 nM?
Data returned: rule not met

Data request: Threshold test, IC50 < 200 nM: O=C1c2ccc(-c3cc(F)c(O)cc3F)nc2CCC12CC2
Data returned: rule met

Data request: Is it true that IC50 reported for O=C1CCCc2nc(-c3cc(F)c(O)c(F)c3)ccc21 is less than 200 nM?
Data returned: rule met

Data request: Does the reported IC50 of the following compound sit strictly below 200 nM? Oc1c(F)cc(-c2ccc3c(n2)CCCC3(O)c2ccccn2)cc1F (stereo not drawn)
Data returned: rule not met

Data request: # TODO verify IC50 < 200 nM strictly for this compound: COC1(c2cccnc2)CCCc2nc(-c3cc(F)c(O)c(F)c3)ccc21 (stereo not drawn)
Data returned: rule met

Data request: Check if IC50 falls below 200 nM for Cc1cc(-c2ccc3c(n2)CCC(C)(C)C3=O)cc(F)c1O .
Data returned: rule met

Data request: Is the reported IC50 for O=C1c2ccc(-c3cc(F)c(O)c(F)c3)nc2CCC12CCC2 strictly below 200 nM?
Data returned: rule not met

Data request: Please let me know if COCCN1CC(C)(C)C(=O)c2ccc(-c3cc(F)c(O)c(F)c3)nc21 shows IC50 below 200 nM.
Data returned: rule not met

Data request: Is IC50 strictly under 200 nM for the entry O=C1c2ccc(-c3cc(F)c(O)c(F)c3)nc2CCC1Cc1ccccc1 (stereo not drawn) ?
Data returned: rule met

Data request: Regarding O=C1CCCc2nc(-c3cnc(O)c(F)c3)ccc21 , kindly confirm whether its IC50 is beneath 200 nM.
Data returned: rule not met

Data request: Lab note: confirm whether the reported IC50 for this compound is below 200 nM, equality not counting. compound: O=C1c2ccc(-c3cc(F)c(O)c(F)c3)nc2CC[C@@H]1Cc1ccccc1
Data returned: rule met

Data request: Bench note: check whether CC[C@@]1(C)CCc2nc(-c3cc(F)c(O)c(F)c3)ccc2C1=O shows IC50 below 200 nM
Data returned: rule met

Data request: Below 200 nM on IC50? Entry COC1(C(C)C)CCCc2nc(-c3cc(F)c(O)c(F)c3)ccc21 (stereo not drawn)
Data returned: rule met

Data request: In the record for O=C1c2ccc(-c3cc(F)c(O)c(F)c3)nc2CC[C@H]1Cc1ccccc1 , is IC50 less than 200 nM?
Data returned: rule met

Data request: Say whether its IC50 is strictly beneath 200 nM. Entry: O=C1c2ccc(-c3cc(F)c(O)c(F)c3)nc2CCC1Cc1cccnc1 (stereo not drawn)
Data returned: rule not met

Data request: Dear reviewer, please state whether CC1(C)CCc2nc(-c3cc(F)c(O)c(F)c3F)ccc2C1=O has IC50 strictly beneath 200 nM.
Data returned: rule met

Data request: Below 200 nM on IC50? Entry CC1(C)CCc2nc(-c3cc(F)c(O)c(F)c3)ncc2C1=O
Data returned: rule not met
